Provenance of the data: the supplement of paper PMC13380429

tested on: Vero E6 infected with SARS-CoV-2; assay: inhibition of SARS-CoV-2 cytopathic effect; higher = more antiviral protection, active = above 15; conditions: 833.33 nM; 48 h
Measurement kind: inhibition of SARS-CoV-2 cytopathic effect (%)
Numbers only here, please. The scale is %.

Please review the entries below; each comes with its answer.
[[record]]
molecule = "CC(C)[C@H](NS(=O)(=O)c1ccc(-c2ccc(Br)cc2)cc1)C(=O)O"
assay_system = "Vero E6 infected with SARS-CoV-2"
reported_result = 0.69

[[record]]
molecule = "Cc1c(C(=O)N2CCOc3ccc(-c4ccc(N)nc4)cc3C2)ccc(S(C)(=O)=O)c1F"
assay_system = "Vero E6 infected with SARS-CoV-2"
reported_result = 0.13

[[record]]
molecule = "CC(=O)N1CCC(C(=O)N(CCCN2CCC(Cc3ccc(C(N)=O)cc3)CC2)c2ccc(C)c(Cl)c2)CC1"
assay_system = "Vero E6 infected with SARS-CoV-2"
reported_result = 0.17

[[record]]
molecule = "CS[C@H]1SC[C@H]2C(=O)N(C)[C@@H](C(C)C)C(=O)OC[C@@H](NC(=O)c3cnc4ccccc4n3)C(=O)N[C@@H](C)C(=O)N(C)[C@@H]1C(=O)N(C)[C@@H](C(C)C)C(=O)OC[C@@H](NC(=O)c1cnc3ccccc3n1)C(=O)N[C@@H](C)C(=O)N2C"
assay_system = "Vero E6 infected with SARS-CoV-2"
reported_result = -17.1

[[record]]
molecule = "NC(=O)[C@@H](CCC(F)(F)F)N(Cc1ccc(-c2ncon2)cc1F)S(=O)(=O)c1ccc(Cl)cc1"
assay_system = "Vero E6 infected with SARS-CoV-2"
reported_result = -4.21


### Prompt Which inhibition of SARS-CoV-2 cytopathic effect is reported for this molecule? c1ccc(NCc2ccc(CNc3ccccn3)cc2)nc1
### Response -0.24

### Prompt Which inhibition of SARS-CoV-2 cytopathic effect is reported for this molecule? Nc1ccc(C(=O)Oc2ccccc2)c(O)c1 [phenyl-aminosalicylate]
### Response -10.7

### Prompt Which inhibition of SARS-CoV-2 cytopathic effect is reported for this molecule? CC(C)NC(=O)N1CC[C@H](NC2=Nc3cc(F)ccc3N(CC(F)F)c3ccc(Cl)cc32)C1
### Response 8.12

### Prompt Which inhibition of SARS-CoV-2 cytopathic effect is reported for this molecule? CS(=O)(=O)OC[C@H](O)[C@@H](O)COS(C)(=O)=O
### Response 0.71

### Prompt Which inhibition of SARS-CoV-2 cytopathic effect is reported for this molecule? CC[C@@H](C)c1ccc(NC(=O)Cn2cnc3c2c(=O)n(C)c(=O)n3C)cc1 (racemic)
### Response -1.04

### Prompt Which inhibition of SARS-CoV-2 cytopathic effect is reported for this molecule? COc1ccc(CC(C)NCC(O)c2ccc(O)c(NC=O)c2)cc1 (centres undefined)
### Response 0.54

### Prompt Which inhibition of SARS-CoV-2 cytopathic effect is reported for this molecule? NC(=O)NCCC[C@H](N)C(=O)O
### Response 2.58

### Prompt Which inhibition of SARS-CoV-2 cytopathic effect is reported for this molecule? Cc1ccc(Sc2cncc3sc(C(N)=O)cc23)cc1
### Response -2.02

### Prompt Which inhibition of SARS-CoV-2 cytopathic effect is reported for this molecule? CN[C@H]1C(=O)N[C@@H]2Cc3ccc(cc3)Oc3cc4cc(c3O[C@@H]3O[C@H](C(=O)O)[C@@H](O)[C@H](O)[C@H]3NC(=O)CCCCCCCCC(C)C)Oc3ccc(cc3Cl)[C@@H](O)[C@@H]3NC(=O)[C@H](NC(=O)[C@@H]4NC(=O)[C@@H](NC2=O)c2cc(cc(O)c2Cl)Oc2cc1ccc2O)c1ccc(O)c(c1)-c1c(O[C@H]2O[C@H](CO)[C@@H](O)[C@H](O)[C@@H]2O)cc(O)cc1[C@@H](C(=O)NCCCN(C)C)NC3=O
### Response -0.14

---

system: Vero E6 infected with SARS-CoV-2; test: inhibition of SARS-CoV-2 cytopathic effect; higher = more antiviral protection, active = above 15; settings: 10000 nM; 48 h
inhibition of SARS-CoV-2 cytopathic effect overview
Numbers only here, please. The scale is %.

[[record]]
compound = "NCCC(Oc1ccc(C(F)(F)F)cc1)c1ccccc1 (centres undefined)"
assay_system = "Vero E6 infected with SARS-CoV-2"
reported_result = -5.55

[[record]]
compound = "NC(=O)c1nc(F)cnc1O [favipiravir]"
assay_system = "Vero E6 infected with SARS-CoV-2"
reported_result = -6.81

[[record]]
compound = "Cc1cnc(Nc2ccc(N3CCN(C)CC3)cc2)nc1Nc1cccc(S(=O)(=O)NC(C)(C)C)c1"
assay_system = "Vero E6 infected with SARS-CoV-2"
reported_result = -21.1

[[record]]
compound = "CN[C@@H](C)[C@H](O)c1ccccc1"
assay_system = "Vero E6 infected with SARS-CoV-2"
reported_result = -0.52

[[record]]
compound = "O=C(Nc1ccccc1C(=O)NC1CCCCNC1=O)c1cc2ccccc2s1 (centres undefined)"
assay_system = "Vero E6 infected with SARS-CoV-2"
reported_result = -0.14


### Prompt Which inhibition of SARS-CoV-2 cytopathic effect is reported for this compound? O=Nc1c(-c2c(O)[nH]c3cc(Br)ccc23)[nH]c2ccccc12
### Response -4.11

### Prompt Which inhibition of SARS-CoV-2 cytopathic effect is reported for this compound? C[C@@H]1CN([C@H]2CC[C@](C#N)(c3ccc(F)cc3)CC2)CC[C@]1(C(=O)O)c1ccccc1
### Response -0.71

### Prompt Which inhibition of SARS-CoV-2 cytopathic effect is reported for this compound? CCCCN(CC)c1nc(C)nc2c1c(C)c(C)n2-c1c(C)cc(C)cc1C
### Response 2

### Prompt Which inhibition of SARS-CoV-2 cytopathic effect is reported for this compound? CC1(C)CNc2cc(NC(=O)c3cccnc3NCc3ccncc3)ccc21
### Response 1.82

---

tested on: Vero E6 infected with SARS-CoV-2; test: inhibition of SARS-CoV-2 cytopathic effect; higher = more antiviral protection, active = above 15; settings: 1 nM; 48 h
Measurement kind: inhibition of SARS-CoV-2 cytopathic effect (%)
Numbers only here, please. The scale is %.

Please review the entries below; each comes with its answer.
[[record]]
molecule = "COCCN1CCN(Cc2ccc(-c3n[nH]c4c3C(=O)c3c(NC(=O)NN5CCOCC5)cccc3-4)cc2)CC1"
assay_system = "Vero E6 infected with SARS-CoV-2"
unit_descriptor = "%"
reported_result = 0.81

[[record]]
molecule = "N[C@H](C(=O)O)c1ccc(O)c(C(=O)O)c1 [3-carboxy-4-hydroxyphenylglycine-(S)]"
assay_system = "Vero E6 infected with SARS-CoV-2"
unit_descriptor = "%"
reported_result = -1.22

[[record]]
molecule = "C[C@@H](N[C@H]1CCCC[C@@H]1NC(=O)c1ccc(Cl)cc1)c1cccc2ccccc12 [Calhex-231]"
assay_system = "Vero E6 infected with SARS-CoV-2"
unit_descriptor = "%"
reported_result = -0.12


Please find the next molecule below.
### Prompt What measured inhibition of SARS-CoV-2 cytopathic effect is associated with CC(C)c1c(NC(=O)Nc2ccc(Cl)cc2)c(=O)n(-c2ccccc2)n1C on Vero E6 infected with SARS-CoV-2?
### Response 0.15

---

tested on: Vero E6 infected with SARS-CoV-2; assay: inhibition of SARS-CoV-2 cytopathic effect; higher = more antiviral protection, active = above 15; settings: 833.33 nM; 48 h
inhibition of SARS-CoV-2 cytopathic effect overview
Numbers only here, please. The scale is %.

Please review the entries below; each comes with its answer.
[[record]]
compound = "Nc1ccc2cc3ccc(N)cc3nc2c1 [proflavine-hemisulfate]"
reported_result = 1.94

[[record]]
compound = "C[C@@H](O)[C@H]1C(=O)N2C(C(=O)O)=C([C@H]3CCCO3)S[C@H]12"
reported_result = 0.92

[[record]]
compound = "CC(C)(O)C(=O)Nc1ccc([N+](=O)[O-])c(C(F)(F)F)c1 [2-hydroxyflutamide]"
reported_result = -2.57


Please find the next compound below.
### Prompt Which inhibition of SARS-CoV-2 cytopathic effect is reported for this compound? Cc1nnc2ccc(-c3cccc(C(F)(F)F)c3)nn12
### Response 1.93

---

test system: Vero E6 infected with SARS-CoV-2; experiment: inhibition of SARS-CoV-2 cytopathic effect; higher = more antiviral protection, active = above 15; conditions: 10000 nM; 48 h
Measurement kind: inhibition of SARS-CoV-2 cytopathic effect (%)
Numbers only here, please. The scale is %.

Please review the entries below; each comes with its answer.
[[record]]
molecule = "CC(C)NCC(O)c1ccc(N)c(C#N)c1 (centres undefined)"
reported_result = 4.49

[[record]]
molecule = "O=C(O)C(Cc1ccccc1[N+](=O)[O-])=NNc1nc(-c2ccc(Cl)c(Cl)c2)cs1"
reported_result = 0.02

[[record]]
molecule = "CO/N=C(\\C(=O)N[C@@H]1C(=O)N2C(C(=O)OCOC(=O)C(C)(C)C)=C(C)CS[C@H]12)c1csc(N)n1"
reported_result = -2.04


### Prompt Which inhibition of SARS-CoV-2 cytopathic effect is reported for this molecule? Cc1c(CN2CCN(C(=O)[C@H](C)O)CC2)sc2c(N3CCOCC3)nc(-c3cnc(N)nc3)nc12
### Response -12.7
